molecular target: T1, PSMA Fab (006 PSMA Fab); assay: clonal phage ELISA; biotinylated PSMA Fab on neutravidin plate, blocking buffer alone; anti-M13 HRP detection;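 also: crude clonal phage supernatants added without washing to wells pretreated with blocking buffer with or without PSMA antigen, short incubation, then washed before detecting bound phage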
T1 construct: also called Anti-PSMA Fab; anti-PSMA Fab
recorded-metric: Phage binding ELISA signal, Anti-PSMA Fab

                         binder  readout_number
 0  WEILCKPEWMCSGF [Phage-3031]            2.19
 1  HHQLCKPLWMCEGF [Phage-3030]            2.19
 2  DMRRCEPIWMCVGF [Phage-3028]            2.19
 3  IERLCMPMWMCTGL [Phage-3024]            2.19
 4  VLPVCKPLWMCKGL [Phage-3027]            2.19
 5  EEKMCTPQWMCSGF [Phage-3020]             2.2
 6  DHLMCKPSWMCKGF [Phage-3022]            2.19
 7  PLVVCKPAWMCIGF [Phage-3025]            2.19
 8  TVPKCVPNWMCDWL [Phage-3023]            2.19
 9  VDVLCVPSWMCSWL [Phage-3026]            2.19
10  IESRCVPEWMCYGF [Phage-3019]             2.2
11  HEAMCRPTWMCHGF [Phage-3018]             2.2
12  GGLRCEPMWMCHGF [Phage-3021]             2.2
13  DSIMCRPAWMCAGF [Phage-3029]            2.19
